Parameter B cells EC50, CD23 surface expression, with cross-linker: see the listing below.
assayed system: Full length human CD40 (huCD40) on cells (human, UniProt P25942 21-277)
Sequence (P25942 21-277): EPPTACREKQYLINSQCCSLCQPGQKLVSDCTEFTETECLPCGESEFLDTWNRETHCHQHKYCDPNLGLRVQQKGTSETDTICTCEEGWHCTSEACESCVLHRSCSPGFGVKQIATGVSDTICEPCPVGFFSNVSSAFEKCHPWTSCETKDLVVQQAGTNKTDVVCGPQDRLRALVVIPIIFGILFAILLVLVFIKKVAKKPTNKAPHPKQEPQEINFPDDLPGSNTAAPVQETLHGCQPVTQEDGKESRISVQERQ
method description: cell-based or functional assay
quantity measured: B cells EC50, CD23 surface expression, with cross-linker (µg/mL)

1. C40M12 (antibody, human IgG1, lambda, V domains shown, Full-length IgG1/lambda; from OmniRat (OMT)) VH: EVQLVESGGGLVQPGGSLRLSCAASGFTFGSYAMSWVRQAPGKGLEWVSVISDSGGRTYYADSVKGRFTISRDYSKNTLYLQMNSLRAEDTAVYYCAKEGGDYYYYGMDVWGQGTTVTVSS VL: SYELTQPPSVSVSPGQTASIICSGDKLGDKYVCWYQQKPGQSPVVVIYHDNKRPSGIPERFSGSNSGNTATLTISGTQAMDEADYYCQVWDSSTVVFGGGTKLTVLG ... 125
2. C40M18 (antibody, human IgG1, lambda, V domains shown, Full-length IgG1/lambda; from OmniRat (OMT); VH C40H48, VL C40L64) VH: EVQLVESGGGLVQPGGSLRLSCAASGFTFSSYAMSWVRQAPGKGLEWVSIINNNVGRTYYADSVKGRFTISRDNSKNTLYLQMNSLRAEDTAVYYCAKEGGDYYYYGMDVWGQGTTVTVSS VL: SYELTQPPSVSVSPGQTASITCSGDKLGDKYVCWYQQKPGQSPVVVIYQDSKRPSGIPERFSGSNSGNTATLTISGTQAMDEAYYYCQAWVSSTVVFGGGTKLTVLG ... 0.306
3. C40M67 (antibody, human IgG1, kappa, V domains shown, Full-length IgG1/kappa; from phage display) VH: EVQLLESGGGLVQPGGSLRLSCAASGFTFSDYAMNWVRQAPGKGLEWVSGIKSGGSSKYYADSVKGRFTISRDNSKNTLYLQMNSLRAEDTAVYYCAKHVDFYRALDYWGQGTLVTVSS VL: EIVLTQSPGTLSLSPGERATLSCRASQSVKNSSLAWYQQKPGQAPRLLIYTASSRATGIPDRFSGSGSGTDFTLTISRLEPEDFAVYYCQQSSAPPWTFGQGTKVEIKR ... 0.00417
4. C40M9 (antibody, human IgG1, lambda, V domains shown) VH: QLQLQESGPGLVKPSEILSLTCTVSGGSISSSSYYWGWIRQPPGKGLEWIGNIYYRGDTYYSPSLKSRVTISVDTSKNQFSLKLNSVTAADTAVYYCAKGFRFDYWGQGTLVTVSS VL: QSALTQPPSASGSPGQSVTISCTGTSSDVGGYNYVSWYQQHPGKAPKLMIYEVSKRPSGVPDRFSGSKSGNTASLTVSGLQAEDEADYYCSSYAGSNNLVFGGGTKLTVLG ... 0.00287
